Target: N-terminal GST tagged full length human TTK kinase (Homo sapiens, UniProt P33981)
Construct: N-terminal GST tagged full length human TTK kinase; GST (N); made in house; host or cells: insect cells
Test: In Vitro TTK Kinase Assay 2 (Caliper LabChip LC3000)
Assay type: biochemical
Conditions: recombinant TTK, 12 μM ATP, read-out: EAA2: Enzyme Assay Activity (In Vitro TTK kinase assay 2)
Field: IC50. Provide a value for each of the compounds that follow.
# number only, unit nM dropped from output

// lookup IC50 | system=N-terminal GST tagged full length human TTK kinase (Homo sapiens, UniProt P33981) | key= N#CCn1c(=O)n(C2CCCC2)c2nc(Nc3ccc(S(N)(=O)=O)cc3)ncc21
131

Next compound: CC(C)n1c(=O)n(C)c2cnc(Nc3ccc(C(=O)NC4CCN(C)CC4)c(F)c3)nc21
2460

Next compound: Cn1c(=O)n(C2CCCC2)c2nc(Nc3ccc(Oc4ccccc4)cc3)ncc21
523

Next compound: COc1cc(C(=O)NCCCn2ccnc2)ccc1Nc1ncc2c(n1)n(C1CCCC1)c(=O)n2C
41.2

* * *

Field: IC50. Provide a value for each of the molecules that follow.
Target: N-terminal GST tagged full length human TTK kinase (Homo sapiens)
Construct: N-terminal GST tagged full length human TTK kinase; GST (N); made in house; host or cells: insect cells
Sequence (P33981 1-857): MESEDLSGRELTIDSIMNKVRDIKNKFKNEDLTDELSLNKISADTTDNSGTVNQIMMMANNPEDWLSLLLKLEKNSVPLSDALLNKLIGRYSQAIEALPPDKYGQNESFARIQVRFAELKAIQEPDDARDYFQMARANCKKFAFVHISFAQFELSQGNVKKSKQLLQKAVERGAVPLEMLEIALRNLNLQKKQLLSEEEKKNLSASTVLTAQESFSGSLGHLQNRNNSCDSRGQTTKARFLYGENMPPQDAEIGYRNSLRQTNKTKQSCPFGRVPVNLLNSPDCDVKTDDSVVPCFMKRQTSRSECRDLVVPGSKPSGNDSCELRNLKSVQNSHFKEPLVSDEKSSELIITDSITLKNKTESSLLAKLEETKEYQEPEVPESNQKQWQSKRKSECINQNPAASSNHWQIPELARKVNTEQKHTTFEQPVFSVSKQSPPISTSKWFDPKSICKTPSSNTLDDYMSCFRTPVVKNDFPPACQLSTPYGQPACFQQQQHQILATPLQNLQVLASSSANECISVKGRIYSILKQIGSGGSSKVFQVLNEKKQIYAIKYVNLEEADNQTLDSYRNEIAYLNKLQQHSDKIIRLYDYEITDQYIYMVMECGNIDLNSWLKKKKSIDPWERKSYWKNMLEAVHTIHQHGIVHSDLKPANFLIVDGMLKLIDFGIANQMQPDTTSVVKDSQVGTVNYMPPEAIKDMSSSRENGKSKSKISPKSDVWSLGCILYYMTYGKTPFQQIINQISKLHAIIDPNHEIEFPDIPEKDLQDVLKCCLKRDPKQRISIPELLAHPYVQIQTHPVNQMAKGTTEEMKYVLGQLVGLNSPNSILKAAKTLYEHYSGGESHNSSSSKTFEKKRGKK
Assay: In Vitro TTK Kinase Assay 1 (AlphaScreen)
Type: biochemical
Conditions: recombinant TTK, 10 μM ATP, read-out: EAA: Enzyme Assay Activity (In Vitro TTK kinase assay 1)
Experimental: Aliquots (2 μL) of each compound dilution were placed into wells of a Greiner 384-well low volume white polystyrene plate (Greiner Bio-one). The resultant signals arising from laser light excitation at 680 nm were read using a Packard Envision instrument.
# number only, unit µM dropped from output

// lookup IC50 | system=N-terminal GST tagged full length human TTK kinase (Homo sapiens) | key= COc1cc(NS(C)(=O)=O)ccc1Nc1ncc2c(n1)n(C1CCCC1)c(=O)n2C [Example 7]
0.714

Next molecule: COc1cc(OC2CCN(C)C2)ccc1Nc1ncc2c(n1)n(C1CCCC1)c(=O)n2C (stereo not shown) [Example 24]
0.151

Next molecule: Cc1cc(S(N)(=O)=O)ccc1Nc1ncc2c(n1)n(C1CCCC1)c(=O)n2C [Example 2]
1.28

Next molecule: CN1CCC(NC(=O)c2ccc(Nc3ncc4c(n3)n(C3CCCC3)c(=O)n4C)c(Cl)c2)CC1 [Example 15]
3.23
